TARGET: T1, rhesus serum albumin (rhesus, UniProt Q28522 17-600)
T1 construct: also called RhSA; Rh-SA
T1 sequence (Q28522 17-600 limits assumed): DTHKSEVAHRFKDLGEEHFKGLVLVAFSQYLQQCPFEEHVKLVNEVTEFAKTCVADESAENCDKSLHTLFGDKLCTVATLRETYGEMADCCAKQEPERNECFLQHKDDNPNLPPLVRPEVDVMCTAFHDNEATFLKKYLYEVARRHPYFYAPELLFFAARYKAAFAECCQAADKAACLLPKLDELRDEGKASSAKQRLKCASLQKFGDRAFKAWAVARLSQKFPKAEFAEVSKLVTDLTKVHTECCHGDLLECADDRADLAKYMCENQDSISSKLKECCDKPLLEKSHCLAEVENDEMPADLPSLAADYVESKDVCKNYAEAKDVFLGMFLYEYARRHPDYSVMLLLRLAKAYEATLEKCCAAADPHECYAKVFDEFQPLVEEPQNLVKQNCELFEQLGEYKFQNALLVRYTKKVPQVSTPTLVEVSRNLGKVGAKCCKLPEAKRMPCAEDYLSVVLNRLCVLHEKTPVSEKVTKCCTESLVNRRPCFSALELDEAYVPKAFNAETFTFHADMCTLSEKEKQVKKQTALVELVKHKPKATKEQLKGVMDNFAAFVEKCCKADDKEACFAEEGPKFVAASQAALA
TEST DETAILS: SPR, albumin immobilized, Adnectin 250 nM
READOUT KIND: koff (s⁻¹)

BINDER	UNIT OF MEASURE	koff
5963_D01.PS5-2 (designed binder) MGVSDVPRDLEVVCATPTSLLISWDAPAVTVRYYRITYGREVQKYSDLGPLYIYQEFTVPGSKSTATISGLKPGVDYTITVYAVTGSGESPASSKPISINYRTPHHHHHH	s⁻¹	0.000313

[I] 5916_A04.PS5-2 (designed binder) MGVSDVPRDLEVVAATPTSLLISWDAPAVTVRYYRITYGREVQKYSDLGPLYIYQEFTVPGSKSTATISGLKPGVDYTITVYAVTGSGESPASSKPISINYRTPEDEDGCHHHHHH
[II] 5963_E02.PS5-2 (designed binder) MGVSDVPRDLEVVAATPTSLLISWDAPAVTVRYYRITYGREVQKYSDLGPLYIYQEFTVPGSKSCATISGLKPGVDYTITVYAVTGSGESPASSKPISINYRTPHHHHHH
Query block: Compare I and II and name the one whose reported koff is smaller. Answer by stating the label of the chosen item.
Result block: I
(I: 0.000172 s⁻¹, II: 0.000284 s⁻¹)
